Entry source: ChEMBL document CHEMBL2440013

# Activity annotations
system: Escherichia coli; test: Induction of mutagenicity in Escherichia coli BL21(DE3) expressing pRAC-gfp assessed as modulation of reporter protein GFP synthesis at 150 uM incubated for 1.5 hrs followed by plasmid maturation measured after 1.5 hrs by fluorophotometry relative to control; assay type: toxicity
Give the quantity in %, number only.

Known results for compounds:
testSmiles | measurementName | measureUnit | number
CC[N+](CC)(CCCCCCCCCCCC[N+](CC)(CC)CC/N=C1\C[C@H]2CC[C@]1(C)C2(C)C)CC/N=C1\C[C@H]2CC[C@]1(C)C2(C)C | Activity | % | 74
CC[N+](CC)(CCCCCCCCC[N+](CC)(CC)CC/N=C1\C[C@H]2CC[C@]1(C)C2(C)C)CC/N=C1\C[C@H]2CC[C@]1(C)C2(C)C | Activity | % | 51
CC[N+](CC)(CCCCCCCC[N+](CC)(CC)CC/N=C1\C[C@H]2CC[C@]1(C)C2(C)C)CC/N=C1\C[C@H]2CC[C@]1(C)C2(C)C | Activity | % | 57

Consider the record given below.
// recorded Activity for CC[N+](CC)(CCCCCCCCCC[N+](CC)(CC)CC/N=C1\C[C@H]2CC[C@]1(C)C2(C)C)CC/N=C1\C[C@H]2CC[C@]1(C)C2(C)C : 70
